- PROTOCOL_DETAILS: Cytotoxicity against cat CRFK cells assessed as cell viability after 7 days by MTT assay
- Type: cell-based, Felis catus
- TEST_PARAMETERS: CRFK cells
Reported log10 CC50 at 168 h by item:
Would you kindly interpret these values as log10 of CC50 at 168 h expressed in µM?

- SMILES_INPUT: "CCN1c2c(ssc2=S)Sc2ssc(=S)c21"
  log10 CC50 at 168 h: -1.51
- SMILES_INPUT: "O=C(O)CCN1c2c(ssc2=S)Sc2ssc(=S)c21"
  log10 CC50 at 168 h: 0.24
- SMILES_INPUT: "CCn1c2c(=S)ssc2c2ssc(=S)c21"
  log10 CC50 at 168 h: 1.30

Query: Give its log10 CC50 at 168 h value. Item: CCOC(=O)CCN1c2c(ssc2=O)Sc2ssc(=S)c21
Reply: 0.36

Query: Check CCOC(=O)CCN1c2c(ssc2=O)Sc2ssc(=O)c21 too.
Reply: -1.25
